molecular target: GPC3 (analyte of Tables 9 and 10) (UniProt P51654 25-559, limits assumed); test: SPR (Biacore T200), purified antibody captured through Fc, GPC3 as analyte, 1:1 model
TEST_READOUT: koff (s⁻¹)
Output spec: scalar in s⁻¹, unitless text.

Q: Consider the binder Chimeric LAb19305-hIgG1 (antibody, V domains shown, The mouse VH/VL numbers follow the parallel order of the lists, as for LAb19305) VH: QVQLQQSGAELVRPGASVTLSCKASGYTFTAYEMHWVKQTPVYGLEWIGGIDPETGNTAYSQNFKGKATLTADKSSSTAYMEVRSLTSEDSAVYYCSRYYSFAYWGQGTLVTVSA VL: DVLMTQTPLSLPVSLGDQASISCRSSQTIVHSNGNTYLEWYLQKPGQSPKLLIYKVSNRFSGVPDRFSGSGSGTDFTLKISRVEAEDLGVYYCFQVSHVPYTFGGGTKLEIKR and give its measured koff.
Ans: 0.000103

Q: Suppose we examine the binder 5VH1VL2-hIgG1 (antibody, V domains shown, Humanized LAb19305, full-length human IgG1/kappa) VH: QVQLVQSGAEVKKPGASVKVSCKASGYTFTAYEMHWVRQAPGQRLEWMGGIDPETGNTAYSQNFKGRVTITRDTSASTAYMELSSLRSEDTAVYYCARYYSFAYWGQGTLVTVSS VL: DIVMTQSPLSLPVTPGEPASISCRSSQTIVHSNGNTYLEWYLQKPGQSPQLLIYKVSNRFSGVPDRFSGSGSGTDFTLKISRVEAEDVGVYYCFQVSHVPYTFGGGTKLEIKR ; what koff value has been reported?
Ans: 0.000117

Q: I am curious: what koff value has been reported for 5VH2VL2-hIgG1 (antibody, V domains shown, Humanized LAb19305, full-length human IgG1/kappa) VH: QVQLVQSGAEVKKPGASVKVSCKASGYTFTAYEMHWVRQAPGQGLEWMGGIDPETGNTAYSQNFKGRVTMTRDTSTSTVYMELSSLRSEDTAVYYCARYYSFAYWGQGTLVTVSS VL: DIVMTQSPLSLPVTPGEPASISCRSSQTIVHSNGNTYLEWYLQKPGQSPQLLIYKVSNRFSGVPDRFSGSGSGTDFTLKISRVEAEDVGVYYCFQVSHVPYTFGGGTKLEIKR ?
Ans: 8.91e-05

Q: Can you look up the measured koff of 5VH2VL3-hIgG1 (antibody, V domains shown, Humanized LAb19305, full-length human IgG1/kappa) VH: QVQLVQSGAEVKKPGASVKVSCKASGYTFTAYEMHWVRQAPGQGLEWMGGIDPETGNTAYSQNFKGRVTMTRDTSTSTVYMELSSLRSEDTAVYYCARYYSFAYWGQGTLVTVSS VL: DIVMTQSPDSLAVSLGERATINCRSSQTIVHSNGNTYLEWYQQKPGQPPKLLIYKVSNRFSGVPDRFSGSGSGTDFTLTISSLQAEDVAVYYCFQVSHVPYTFGGGTKLEIKR for me?
Ans: 8.76e-05
